Listing of recorded inhibition at 1 µM by entry.
Target: human recombinant dopamine D2L receptor (Homo sapiens)
Construct: expressed in transfected cells; host or cells: CHO cells
Sequence (P14416 whole entry): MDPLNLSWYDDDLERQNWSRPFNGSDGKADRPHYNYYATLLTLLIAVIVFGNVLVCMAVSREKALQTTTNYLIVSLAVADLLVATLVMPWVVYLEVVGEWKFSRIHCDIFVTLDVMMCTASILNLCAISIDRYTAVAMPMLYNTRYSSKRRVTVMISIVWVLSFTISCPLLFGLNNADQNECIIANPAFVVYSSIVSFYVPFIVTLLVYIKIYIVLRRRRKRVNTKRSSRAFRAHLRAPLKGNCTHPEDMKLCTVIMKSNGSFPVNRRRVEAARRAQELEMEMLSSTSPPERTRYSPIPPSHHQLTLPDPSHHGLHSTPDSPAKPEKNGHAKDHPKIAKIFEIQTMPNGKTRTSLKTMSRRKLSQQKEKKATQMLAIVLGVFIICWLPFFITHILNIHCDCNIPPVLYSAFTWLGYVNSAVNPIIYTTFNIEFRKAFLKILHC
Experiment: Dopamine D2L radioligand binding ([3H]Spiperone)
Details: read-out: Dopamine (1 μM) D2L, inhibition of ligand binding

{"COMPOUND": "C/C(=C\\n1c2c(c3cc(C)ccc31)C1CCC(C2)N1C)c1ccccc1F (centres unmarked) [Compound 164]", "inhibition at 1 µM": "12%"}
{"COMPOUND": "Cc1ccc(CCn2c3c(c4ccccc42)C2CCC(C3)N2C)cn1 (centres unmarked) [Compound 92]", "inhibition at 1 µM": "0%"}
{"COMPOUND": "CN1C2CCC1c1c(n(CC(=O)N3CCCC3)c3ccc(Cl)cc13)C2 (centres unmarked) [Compound 60]", "inhibition at 1 µM": "0%"}
{"COMPOUND": "CN1C2CCC1c1c(n(C#Cc3ccc(Cl)cc3)c3ccc(Cl)cc13)C2 (centres unmarked) [Compound 142]", "inhibition at 1 µM": "0%"}
{"COMPOUND": "Cc1ccc2c(c1)c1c(n2CCC#N)CC2CCC1N2C (centres unmarked) [Compound 103]", "inhibition at 1 µM": "4%"}

src = patent US8546381B2
